# System: SK-OV-3 ovarian
# ASSAY_METHOD_TEXT: NCI tumour cell line growth inhibition, 48 h
MEASURE_NAME: TGI

Guide cases for TGI, answers given:
COc1cccc(-c2c[nH]c3c(N/N=C/c4ccncc4)ncnc23)c1; 3.91 µM
Cc1[nH]c2ccccc2c1CCCO; > 100 µM
O=C(/C=C/Sc1cc(C(F)(F)F)cc(C(F)(F)F)c1)c1ccc(Cl)cc1; 31.3 µM
O=C1C[C@@H](C(=O)OCc2ccccc2)NC(=O)C[C@@H](C(=O)OCc2ccccc2)NC(=O)C[C@@H](C(=O)OCc2ccccc2)N1; 97.1 µM
C[n+]1cccc2c(=O)c3ccccc3oc21; > 100 µM

Q. TGI for N#CC1(C#N)NC(c2cccs2)C(C#N)(C#N)NC1c1cccs1 (stereo not given) ?
A. > 100 µM

Q. What about this molecule? `C=C[C@@H](C)[C@H](NS(=O)(=O)c1ccc(C)cc1)C(=O)OCC`
A. > 100 µM

Q. What about this molecule? `Cc1cc(C)nc(SC2=C(Nc3ccc(C)c(Cl)c3)C(=O)N(Cc3ccccc3)C2=O)n1`
A. > 160 µM

Q. What about this molecule? CN(C(=O)C12C3C4C1C1C2C3C41C(N)=O)C(C)(C)C (stereo not given)
A. > 100 µM

Q. What about this molecule? `C[C@H](OCc1ccccc1)C(=O)N1CCS(=O)(=O)N2CCC[C@@H]2C1=O`
A. > 100 µM

###

# Test system: OVCAR-3 ovarian
# ASSAY_METHOD_TEXT: NCI tumour cell line growth inhibition, 48 h
MEASURE_NAME: TGI

Guide cases for TGI, answers given:
CC(C)CNc1nc2ncnc(N)c2[nH]1; > 100 µM
N#C/C(=C\c1ccsc1)c1nc2ccccc2o1; > 100 µM
CN1CCN(C(=O)C(C)(C)c2ccc(C(=O)Nc3cn4cc(-c5ccncc5)ccc4n3)cc2)CC1; 0.431 µM

Q. TGI for COc1ccc(C2=Nc3cc(C)c(C)cc3NC(c3ccccc3)C2)cc1 (stereo unspecified) ?
A. > 100 µM

Q. What about this compound? `O=C(Nc1ccc(Br)cc1F)c1cc(I)ccc1O`
A. > 100 µM

###

Below are compounds with their GI50 as measured on U251 CNS.

CCCCOC(=O)N1CCN(/[N+]([O-])=N/Oc2ccc([N+](=O)[O-])cc2[N+](=O)[O-])CC1; 5850 nM
CCCCCCC[CH2][Sn]([CH2]CCCCCCC)([O]c1cccc2cccnc12)[O]c1cccc2cccnc12; 1720 nM
COc1ccc(CCN2CC=Cn3c2nc2ccccc2c3=O)cc1; 36.8 nM
C=Cc1cncc(C#N)c1CCc1c(C#N)cncc1C=C; > 100000 nM
O=C(N/N=C/C=C/c1ccc([N+](=O)[O-])o1)c1cc2ccccc2cc1O; 1420 nM
Cc1cc(C)nc(SC2=C(Nc3ccc(C)c(Cl)c3)C(=O)N(Cc3ccccc3)C2=O)n1; > 160000 nM
O=C1C(Nc2ccc(Cl)cc2)=C(I)C(=O)c2ncccc21; 1480 nM
CC(=O)[CH-]C(=O)c1ccccc1.CC(=O)[CH-]C(=O)c1ccccc1.CC[O-].CC[O-].[Hf+4]; > 100000 nM
Nc1ncnc2c1N=C(c1ccc3c(c1)OCO3)CC(c1ccc([N+](=O)[O-])cc1)N2 (stereo not given); 49300 nM

Okay, next one:
Q. Entry O=C1OCC2=C1C(c1cccc(Cl)c1)c1cc3c(cc1N2CCO)OCCO3 (stereo not given) , system U251 CNS: what GI50 was measured?
A. 54.2 nM

###

# maps each entry to its TGI
# Test system: SW-620 colon
# ASSAY_METHOD_TEXT: NCI tumour cell line growth inhibition, 48 h
// return numeric value only (unit: µM, not printed)

Cc1ccc([S@](=O)c2occc2C=O)cc1; 3.63

Okay, next one:
Q. TGI for `COc1cc(OC)c(C/C=C/c2ccccc2)cc1O` ?
A. 38

###

# Test system: UO-31 renal
# ASSAY_METHOD_TEXT: NCI tumour cell line growth inhibition, 48 h
MEASURE_NAME: TGI

Cc1ccc2c(=O)cc(-c3ccc(Cl)s3)[nH]c2n1; 0.301 µM
C/C=C/c1cc(=O)c([C@@H]2OC(=O)c3cc(OC)cc(OC)c32)co1; > 100 µM
OCC(O)C(O)C(O)C(O)c1nc2ccc(Cl)cc2[nH]1 (stereo unspecified); > 100 µM
C=Cc1cncc(C#N)c1CCc1c(C#N)cncc1C=C; > 100 µM
CSC1=C(N)C(=O)c2[nH]cc(CO)c2C1=N; 0.295 µM

Q. Entry Cc1cn(C2CC3C(COCN3O)O2)c(=O)[nH]c1=O (stereo unspecified) , system UO-31 renal: what TGI was measured?
A. > 100 µM

Q. What about this molecule? `Cc1cc(F)ccc1S(=O)(=O)Nc1cc(-c2c(O)ccc3ccccc23)c(O)c2ccccc12`
A. 13.3 µM

Q. What about this molecule? `CC(C)CNc1nc2ncnc(N)c2[nH]1`
A. > 100 µM

###

# Test system: MOLT-4 leukemia
# ASSAY_METHOD_TEXT: NCI tumour cell line growth inhibition, 48 h; in the data active = GI50 below about 0.43 µM; inactive = the rest
Write down the outcome that applies. Available outcomes: true = active, false = inactive

Would you please look over these solved cases?
CCNCCCn1c2c(c3ccc(Cl)cc3c1=O)C(=O)c1cc(OC)cnc1-2; true
CCCCOC(=O)N1CCN(/[N+]([O-])=N/Oc2ccc([N+](=O)[O-])cc2[N+](=O)[O-])CC1; false
C#CC#CC#CC#CC#CC#CC#CC#CCC1OCC(COC(=O)O[C@@H](C(=O)O[C@H]2C[C@@]3(O)[C@@H](OC(=O)c4ccccc4)[C@@H]4[C@]5(OC(C)=O)CO[C@@H]5C[C@H](O)[C@@]4(C)C(=O)[C@H](OC(C)=O)C(=C2C)C3(C)C)[C@@H](NC(=O)c2ccccc2)c2ccccc2)O1 (stereo not given in full); true
O=C1C(Nc2ccc(Cl)cc2)=C(I)C(=O)c2ncccc21; false
COc1ccc(CCN2CC=Cn3c2nc2ccccc2c3=O)cc1; true

Q. For this molecule, state the assay outcome: `CC(=O)[CH-]C(=O)c1ccccc1.CC(=O)[CH-]C(=O)c1ccccc1.CC[O-].CC[O-].[Hf+4]`
A. false

###

# System: HT29 colon
# ASSAY_METHOD_TEXT: NCI tumour cell line growth inhibition, 48 h
MEASURE_NAME: TGI

Guide cases for TGI, answers given:
C/C(O)=C(/C=N/C(=S)Nc1ccc(S(N)(=O)=O)cc1)C(=O)Nc1ccccc1C; > 100 µM
Cc1ccc2c(=O)cc(-c3ccc(Cl)s3)[nH]c2n1; > 52.4 µM
CC1C(=O)N(c2ccccc2)NC12CCCc1ccccc12 (configuration not stated); > 100 µM
O=C(O)CC[C@H](NC(=O)c1ccc(-n2nc3ccc(O)cc3nc2=O)cc1)C(=O)O; > 100 µM

Q. TGI for `CCCCCCC[CH2][Sn]([CH2]CCCCCCC)([O]c1cccc2cccnc12)[O]c1cccc2cccnc12` ?
A. 3.94 µM

Q. What about this molecule? Cc1ccc2c(c1)-c1c3c(nn1-c1ccccc1)-c1ccccc1SC3O2 (configuration not stated)
A. > 100 µM

Q. What about this molecule? NNC(=O)C1CCC(=O)N1S(=O)(=O)c1ccccc1 (configuration not stated)
A. > 100 µM

###

# maps each entry to its TGI
# Tested on: SR leukemia
# ASSAY_METHOD_TEXT: NCI tumour cell line growth inhibition, 48 h

CSC1=C(N)C(=O)c2[nH]cc(CO)c2C1=N; 0.659 µM
CCN(CC)N1C(=O)[N+](CC)(CC)N=C1[O-]; > 100 µM
CCOc1cc2c(C(=O)CC)c(O)ccc2o1; > 100 µM
COc1cccc(-c2c[nH]c3c(N/N=C/c4ccncc4)ncnc23)c1; > 24.1 µM
CSCCC(N)C(=O)NCCNc1ccc(NCCNC(=O)C(N)CCSC)c2c1C(=O)c1ccccc1C2=O (stereo unspecified); 2.85 µM

Q. TGI for `Cc1ccc(S(=O)(=O)c2c(COC(=O)c3cccc(C)c3)c(-c3ccccc3)nn2C)cc1` ?
A. > 100 µM

Q. What about this compound? `CCOC(=O)CC[C@H](NC(=O)c1nc[nH]c1[N+](=O)[O-])C(=O)OCC`
A. > 100 µM

Q. What about this compound? `Cc1c(C(=O)Nc2ccccc2)sc2ncn(Cc3cccc(Cl)c3)c(=O)c12`
A. 53 µM

Q. What about this compound? `CC(=O)Nc1ccc(S(=O)(=O)N/N=C/CN2C(=O)c3ccccc3C2=O)cc1`
A. > 100 µM

Q. What about this compound? `O=C1C[C@@H](C(=O)OCc2ccccc2)NC(=O)C[C@@H](C(=O)OCc2ccccc2)NC(=O)C[C@@H](C(=O)OCc2ccccc2)N1`
A. 20.7 µM

Q. What about this compound? Cc1cc2c(cc1Cl)SC1=NN(C)C(C)N1S2(=O)=O (stereo unspecified)
A. > 100 µM

Q. What about this compound? `CN(C)c1nc(N)nc(CS)n1`
A. > 100 µM

Q. What about this compound? C[C@@H]1[C@H](C)N1CC(O)Cn1ccnc1[N+](=O)[O-] (stereo partly specified)
A. > 100 µM

Q. What about this compound? `O=C1CCCCC/C1=C\c1ccc([N+](=O)[O-])cc1`
A. 92.9 µM

Q. What about this compound? O=C(C/C(=N/O)C(=O)NC1=C(Cl)C(=O)c2ccccc2C1=O)CC(c1ccccc1)c1c(O)c2ccccc2oc1=O (stereo unspecified)
A. > 100 µM

Q. What about this compound? `O=C1C(Nc2ccc(Cl)cc2)=C(I)C(=O)c2ncccc21`
A. 2.28 µM

Q. What about this compound? `O=C(Nc1ccc(Br)cc1F)c1cc(I)ccc1O`
A. > 100 µM

FYI, the data here is from PubChem BioAssay (NCI).
